Just for reference, PubChem BioAssay (NCI) is where these values come from.

Test system: NCI/ADR-RES ovarian
Assay: NCI tumour cell line growth inhibition, 48 h
ASSAY_METRIC: TGI

INSERT INTO assay_data (molecule, recorded_result) VALUES
  ('COc1cc(/C=C/C(=O)c2ccc(Nc3nc(Nc4ccccc4)nc(Nc4ccc(Cl)cc4)n3)cc2)cc(OC)c1OC', '> 32.5 µM'),
  ('CN(C)CCOc1nc2ccccc2c2c1-c1ccc(Cl)cc1C2=O', '4.4 µM'),
  ('CN1CCN(c2ccc3nc4c(nc3c2C(F)(F)F)C(=O)c2ncccc2C4=O)CC1', '6.94 µM'),
  ('COc1cccc2c1C(=O)c1c(O)c3c(c(O)c1C2=O)C[C@@](O)(/C(C)=N/NC(=O)c1ccc(Cl)c(Cl)c1)C[C@@H]3OC1CC(N)C(O)C(C)O1 (stereo partly drawn)', '2.84 µM'),
  ('CC1OC(OC2C(O[C@@H]3C[C@@H]4CC[C@@H]5[C@H](CC[C@]6(C)[C@@H]7[C@H](C[C@@H]56)O[C@]5(CC[C@@H](C)CO5)[C@H]7C)[C@@]4(C)C[C@H]3O)OC(CO)C(OC3OC(CO)C(O)C(O)C3O)C2O)C(O)C(O)C1O (stereo partly drawn)', '3.88 µM'),
  ('O=C(NC/C(Cl)=C/Cl)Nc1cccc2c1CCCC2', '> 100 µM'),
  ('N#Cc1c(Oc2ccc(F)c(NC(=O)Cc3cccc(C(F)(F)F)c3)c2)ccc2nc(NC(=O)C3CC3)sc12', '> 100 µM'),
  ('O=[N+]([O-])c1ccc(-c2ccccc2)c([As](=O)(O)O)c1', '> 100 µM');
